Cited source: patent US5932410A

Biological target: Proteinase K (Parengyodontium album)
Sequence (P06873 106-384): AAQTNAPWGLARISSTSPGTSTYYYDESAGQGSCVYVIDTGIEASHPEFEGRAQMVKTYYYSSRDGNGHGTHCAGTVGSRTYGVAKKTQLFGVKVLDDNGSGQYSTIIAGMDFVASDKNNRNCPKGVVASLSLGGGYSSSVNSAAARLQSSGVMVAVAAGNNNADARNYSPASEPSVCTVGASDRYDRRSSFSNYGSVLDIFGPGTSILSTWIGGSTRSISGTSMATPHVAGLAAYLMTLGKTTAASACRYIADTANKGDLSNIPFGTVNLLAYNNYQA
Test: Esterase assay, proteinase K
Type: biochemical
Conditions: Z-AX-OMe substrate, X = P1 residue; rates approximately ± 10%
Description: Advantage was taken of this activity to develop an "esterase" assay which uses a pH indicator to visualise the hydrogen ion release caused by the action of proteases on peptide-ester substrates. A series of twenty compounds of the form, carbobenzoxy alanyl-X-methyl ester (Z-AX-OMe) were synthesised where "X" is one of the naturally occurring amino acids. […] The reactions were followed visually or quantified using a standard ELISA plate reader. […]
Where a SMILES comes first, the peptide text is derived from it. The star is where a group is joined. Cbz = O=C(OCc1ccccc1)*
Endpoint Name: Esterase rate, Proteinase K

COC(=O)[C@H](CC(C)C)NC(=O)[C@H](C)NC(=O)OCc1ccccc1 [Leu] (Cbz-Ala-Leu-OMe) ... 240 A580 change/min./mg protease
COC(=O)[C@H](CC(N)=O)NC(=O)[C@H](C)NC(=O)OCc1ccccc1 [Asn] (Cbz-Ala-Asn-OMe) ... 137 A580 change/min./mg protease
COC(=O)[C@H](C)NC(=O)[C@H](C)NC(=O)OCc1ccccc1 [Ala] (Cbz-Ala-Ala-OMe) ... 775 A580 change/min./mg protease
CC[C@H](C)[C@H](NC(=O)[C@H](C)NC(=O)OCc1ccccc1)C(=O)OC [Ile] (Cbz-Ala-Ile-OMe) ... 5 A580 change/min./mg protease
COC(=O)[C@H](Cc1ccc(O)cc1)NC(=O)[C@H](C)NC(=O)OCc1ccccc1 [Tyr, Z-Ala-Tyr-OMe] (Cbz-Ala-Tyr-OMe) ... 80 A580 change/min./mg protease
COC(=O)[C@H](CS)NC(=O)[C@H](C)NC(=O)OCc1ccccc1 [Cys] (Cbz-Ala-Cys-OMe) ... 392 A580 change/min./mg protease
COC(=O)[C@@H]1CCCN1C(=O)[C@H](C)NC(=O)OCc1ccccc1 [Pro] (Cbz-Ala-Pro-OMe) ... trace
COC(=O)[C@H](CCCNC(=N)N)NC(=O)[C@H](C)NC(=O)OCc1ccccc1 [Arg, Z-Ala-Arg-OMe] (Cbz-Ala-Arg-OMe) ... 24 A580 change/min./mg protease
COC(=O)[C@H](CCSC)NC(=O)[C@H](C)NC(=O)OCc1ccccc1 [Met] (Cbz-Ala-Met-OMe) ... 525 A580 change/min./mg protease
COC(=O)[C@H](Cc1ccccc1)NC(=O)[C@H](C)NC(=O)OCc1ccccc1 ... 342 A580 change/min./mg protease
COC(=O)[C@H](CC(=O)O)NC(=O)[C@H](C)NC(=O)OCc1ccccc1 [Asp] (Cbz-Ala-Asp-OMe) ... 18 A580 change/min./mg protease
COC(=O)[C@H](CCC(=O)O)NC(=O)[C@H](C)NC(=O)OCc1ccccc1 [Glu] (Cbz-Ala-Glu-OMe) ... 97 A580 change/min./mg protease
COC(=O)CNC(=O)[C@H](C)NC(=O)OCc1ccccc1 [Gly] (Cbz-Ala-Gly-OMe) ... 58 A580 change/min./mg protease
COC(=O)[C@H](Cc1cnc[nH]1)NC(=O)[C@H](C)NC(=O)OCc1ccccc1 [His] (Cbz-Ala-His-OMe) ... 203 A580 change/min./mg protease
COC(=O)[C@H](Cc1c[nH]c2ccccc12)NC(=O)[C@H](C)NC(=O)OCc1ccccc1 [Trp] (Cbz-Ala-Trp-OMe) ... 353 A580 change/min./mg protease
COC(=O)[C@H](CO)NC(=O)[C@H](C)NC(=O)OCc1ccccc1 [Ser] (Cbz-Ala-Ser-OMe) ... 348 A580 change/min./mg protease
COC(=O)[C@H](CCCCN)NC(=O)[C@H](C)NC(=O)OCc1ccccc1 [Lys] (Cbz-Ala-Lys-OMe) ... 61 A580 change/min./mg protease
COC(=O)[C@H](CCC(N)=O)NC(=O)[C@H](C)NC(=O)OCc1ccccc1 [Gln] (Cbz-Ala-Gln-OMe) ... 553 A580 change/min./mg protease
COC(=O)[C@@H](NC(=O)[C@H](C)NC(=O)OCc1ccccc1)C(C)C [Val] (Cbz-Ala-Val-OMe) ... 97 A580 change/min./mg protease
COC(=O)[C@@H](NC(=O)[C@H](C)NC(=O)OCc1ccccc1)[C@@H](C)O [Thr] (Cbz-Ala-Thr-OMe) ... 90 A580 change/min./mg protease
